Target: UniProt:P29274
parameter: Ki (nM)
A number alone suffices; assume nM.

# mol, assay system, measurement units, Ki
rows = [
    ("COc1ccc(CCCn2ncc3c2nc(N)n2nc(-c4ccco4)nc32)cc1OC", "UniProt:P29274", "nM", 2.7),
]

Query: Suppose we examine the compound `Nc1nc2c(cnn2CCCc2ccc(O)cc2)c2nc(-c3ccco3)nn12` ; what Ki value has been reported?
Result: 1.5

---

The reader will find pKi measurements below, all made with Adenosine receptor A2a (Rattus norvegicus).
Sequence (P30543 whole entry): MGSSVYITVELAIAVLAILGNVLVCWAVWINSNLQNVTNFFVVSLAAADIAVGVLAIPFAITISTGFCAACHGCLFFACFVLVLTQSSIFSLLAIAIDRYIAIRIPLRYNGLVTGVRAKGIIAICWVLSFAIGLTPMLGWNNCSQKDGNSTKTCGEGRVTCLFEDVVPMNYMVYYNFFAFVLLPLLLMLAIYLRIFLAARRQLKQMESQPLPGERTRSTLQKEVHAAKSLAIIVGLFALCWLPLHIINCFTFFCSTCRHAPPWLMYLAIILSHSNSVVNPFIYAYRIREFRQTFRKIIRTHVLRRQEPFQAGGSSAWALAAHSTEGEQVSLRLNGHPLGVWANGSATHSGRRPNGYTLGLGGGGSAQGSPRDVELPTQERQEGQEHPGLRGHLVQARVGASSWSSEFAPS
API: returns pKi as number; meaning -log10 of concentration in mol/L.

# compound, pKi
measured = [
    ("Nc1nc2ccc(Cl)cc2c2nc(-c3ccco3)nn12 [CGS-15943]", 9.02),
]

Query: Suppose we examine the compound `Nc1nc2c(cnn2CCc2ccc(O)cc2)c2nc(-c3ccco3)nn12` ; what pKi value has been reported?
Result: 8.77

Query: Suppose we examine the compound `Nc1nc2c(cnn2Cc2ccc(OCc3ccccc3)cc2)c2nc(-c3ccco3)nn12` ; what pKi value has been reported?
Result: 6.61

Query: Suppose we examine the compound `COc1ccc(CCCn2ncc3c2nc(N)n2nc(-c4ccco4)nc32)cc1OC` ; what pKi value has been reported?
Result: 8.28

---

Assay: Selectivity for human A3 adenosine receptor and rat A2A adenosine receptor
parameter: Selectivity

# mol, parameter, result
measured = [
    ("Nc1nc2c(cnn2CCCc2ccc(O)cc2)c2nc(-c3ccco3)nn12", "Selectivity", "> 10600"),
    ("Nc1nc2c(cnn2CCCc2ccc(O)c(O)c2)c2nc(-c3ccco3)nn12", "Selectivity", "> 204"),
    ("Nc1nc2c(cnn2Cc2ccc(OCc3ccccc3)cc2)c2nc(-c3ccco3)nn12", "Selectivity", "> 40"),
    ("Nc1nc2c(cnn2CCCc2ccc(OCc3ccccc3)cc2)c2nc(-c3ccco3)nn12", "Selectivity", "> 222"),
    ("Nc1nc2c(cnn2CCc2ccc(O)cc2)c2nc(-c3ccco3)nn12", "Selectivity", "> 5880"),
]

Query: Suppose we examine the compound `Nc1nc2c(cnn2CCc2ccc(OCc3ccccc3)cc2)c2nc(-c3ccco3)nn12` ; what Selectivity value has been reported?
Result: > 169

Query: Suppose we examine the compound `Nc1nc2c(cnn2CCCc2ccc3c(c2)OCO3)c2nc(-c3ccco3)nn12` ; what Selectivity value has been reported?
Result: > 2630

Query: Suppose we examine the compound `Nc1nc2c(cnn2Cc2ccc(O)cc2)c2nc(-c3ccco3)nn12` ; what Selectivity value has been reported?
Result: > 188

Query: Suppose we examine the compound `COc1ccc(CCCn2ncc3c2nc(N)n2nc(-c4ccco4)nc32)cc1OC` ; what Selectivity value has been reported?
Result: > 1890

---

Molecular target: Adenosine receptor A2a (Homo sapiens, UniProt P29274)
Sequence (P29274 whole entry): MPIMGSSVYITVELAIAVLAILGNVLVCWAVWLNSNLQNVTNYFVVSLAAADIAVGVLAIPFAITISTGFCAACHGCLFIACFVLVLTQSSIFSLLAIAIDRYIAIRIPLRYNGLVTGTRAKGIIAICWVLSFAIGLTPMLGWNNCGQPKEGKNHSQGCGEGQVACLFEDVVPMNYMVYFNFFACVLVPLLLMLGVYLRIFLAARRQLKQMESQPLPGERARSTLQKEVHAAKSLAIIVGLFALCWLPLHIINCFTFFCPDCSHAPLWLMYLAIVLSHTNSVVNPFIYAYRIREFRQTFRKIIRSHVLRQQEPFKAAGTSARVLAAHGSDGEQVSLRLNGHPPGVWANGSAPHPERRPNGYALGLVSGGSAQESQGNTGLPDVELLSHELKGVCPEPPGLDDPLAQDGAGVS
Assay: Inhibition of 1 uM NECA-stimulated cyclic AMP levels in human platelets
Reported pIC50 values follow for various molecules
API: returns pIC50 as number; meaning -log10 of concentration in mol/L.

Field: example entries. Status: answers known.
# mol, assay system, quantitative readout
records = [
    ("Nc1nc2c(cnn2CCCc2ccc(O)c(O)c2)c2nc(-c3ccco3)nn12", "Adenosine receptor A2a (Homo sapiens, UniProt P29274)", 7.22),
    ("Nc1nc2c(cnn2CCCc2ccc(O)cc2)c2nc(-c3ccco3)nn12", "Adenosine receptor A2a (Homo sapiens, UniProt P29274)", 8.00),
    ("Nc1nc2c(cnn2Cc2ccc(O)cc2)c2nc(-c3ccco3)nn12", "Adenosine receptor A2a (Homo sapiens, UniProt P29274)", 6.83),
    ("Nc1nc2c(cnn2CCc2ccc(O)cc2)c2nc(-c3ccco3)nn12", "Adenosine receptor A2a (Homo sapiens, UniProt P29274)", 7.85),
    ("Nc1nc2c(cnn2CCCc2ccc(OCc3ccccc3)cc2)c2nc(-c3ccco3)nn12", "Adenosine receptor A2a (Homo sapiens, UniProt P29274)", 6.52),
]

Query: Quick check: pIC50 on Adenosine receptor A2a (Homo sapiens, UniProt P29274), item `Nc1nc2c(cnn2CCCc2ccc3c(c2)OCO3)c2nc(-c3ccco3)nn12` ?
Result: 8.10

Query: Quick check: pIC50 on Adenosine receptor A2a (Homo sapiens, UniProt P29274), item `Nc1nc2c(cnn2CCc2ccc(OCc3ccccc3)cc2)c2nc(-c3ccco3)nn12` ?
Result: 7.05

Query: Quick check: pIC50 on Adenosine receptor A2a (Homo sapiens, UniProt P29274), item `Nc1nc2c(cnn2Cc2ccc(OCc3ccccc3)cc2)c2nc(-c3ccco3)nn12` ?
Result: 6.30

Query: Quick check: pIC50 on Adenosine receptor A2a (Homo sapiens, UniProt P29274), item `COc1ccc(CCCn2ncc3c2nc(N)n2nc(-c4ccco4)nc32)cc1OC` ?
Result: 7.70

---

Molecular target: Adenosine receptor A1 (Rattus norvegicus, UniProt P25099)
Sequence (P25099 whole entry): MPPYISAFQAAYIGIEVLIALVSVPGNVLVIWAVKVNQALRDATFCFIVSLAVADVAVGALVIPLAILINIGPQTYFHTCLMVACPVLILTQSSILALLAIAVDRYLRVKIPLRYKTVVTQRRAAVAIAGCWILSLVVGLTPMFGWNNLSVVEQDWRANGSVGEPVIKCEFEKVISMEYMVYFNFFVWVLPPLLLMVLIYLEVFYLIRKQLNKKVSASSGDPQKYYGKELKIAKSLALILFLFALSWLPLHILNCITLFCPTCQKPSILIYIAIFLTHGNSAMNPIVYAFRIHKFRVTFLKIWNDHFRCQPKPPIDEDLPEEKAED
Reported Ki values follow for various molecules
A number alone suffices; assume nM.

Field: example entries. Status: answers known.
# mol, measurement units, Ki
measured = [
    ("Nc1nc2c(cnn2Cc2ccc(OCc3ccccc3)cc2)c2nc(-c3ccco3)nn12", "nM", 9450),
    ("Nc1nc2c(cnn2CCCc2ccc(OCc3ccccc3)cc2)c2nc(-c3ccco3)nn12", "nM", 1460),
]

Turning to the following molecule.
Query: Quick check: Ki on Adenosine receptor A1 (Rattus norvegicus, UniProt P25099), item `COc1ccc(CCCn2ncc3c2nc(N)n2nc(-c4ccco4)nc32)cc1OC` ?
Result: 2830

---

Target: Adenosine receptor A3 (Homo sapiens)
Sequence (P0DMS8 whole entry): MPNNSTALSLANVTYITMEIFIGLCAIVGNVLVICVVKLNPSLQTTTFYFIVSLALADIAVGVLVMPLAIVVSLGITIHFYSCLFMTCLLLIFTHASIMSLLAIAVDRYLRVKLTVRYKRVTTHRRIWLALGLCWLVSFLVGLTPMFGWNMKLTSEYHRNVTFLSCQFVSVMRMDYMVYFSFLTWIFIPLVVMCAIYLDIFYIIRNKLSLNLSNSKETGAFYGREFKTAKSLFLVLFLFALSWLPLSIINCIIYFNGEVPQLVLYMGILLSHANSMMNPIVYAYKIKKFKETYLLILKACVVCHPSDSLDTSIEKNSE
Assay: biochemical
Description: Displacement of [125I]AB-MECA from human Adenosine A3 receptor expressed in HEK293 cells
pKi: −log10 of the molar value.
parameter: pKi

Query: Suppose we examine the molecule `Nc1nc2c(cnn2CCCc2ccc3c(c2)OCO3)c2nc(-c3ccco3)nn12` ; what pKi value has been reported?
Result: < 5.00

Query: Suppose we examine the molecule `COc1ccc(CCCn2ncc3c2nc(N)n2nc(-c4ccco4)nc32)cc1OC` ; what pKi value has been reported?
Result: < 5.00

Query: Suppose we examine the molecule `Nc1nc2c(cnn2CCCc2ccc(O)cc2)c2nc(-c3ccco3)nn12` ; what pKi value has been reported?
Result: < 5.00
